System: UCHL1, P09936
Sequence (P09936 whole entry, looked up, the tested form may be a part): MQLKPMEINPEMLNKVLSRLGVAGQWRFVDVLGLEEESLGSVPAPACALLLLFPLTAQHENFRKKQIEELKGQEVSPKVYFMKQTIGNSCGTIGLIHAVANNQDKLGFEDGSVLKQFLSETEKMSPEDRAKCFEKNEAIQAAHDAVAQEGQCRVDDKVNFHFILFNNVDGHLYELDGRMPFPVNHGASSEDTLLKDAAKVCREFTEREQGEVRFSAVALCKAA
Test summary: median log2 fold change of GCK-ALFA target abundance (FLAG IP / Myc IP barcode read proportion) (log2 ratio); each designed protein is fused to an ALFA-tag nanobody in HEK293 cells to bring the named protein to FLAG-tagged glucokinase (GCK); Myc marks an untargeted standard; higher = target protein stabilised (more abundant)
Measurement context: target protein: 3xFLAG-MCP-GCK-ALFA reporter; HEK293 landing pad (RPLP)
Result type: median log2 fold change
Please reply with the number alone, leaving off any unit.

Examples with their reported median log2 fold change follow.
Binder	median log2 fold change
uchl1_122_7438 (protein) MLTIEVDVTSSLSPEGLEILKEYVSKLLDNPKFEEELVSPGTLRLIFTGELKDLTEEEIREIENEALEKAGANQSLTPNQRVSFGNAVRRIARQVAKARA	0.324
uchl1_122_7447 (protein) TVTVEVVGRRADIEAIAAVIRAVFAAAGIKVDVEIEELSPTTAKLTVTITVPPVTDEQVDATIAALAAAMAALVEAEGISRALAGIAFTRVERALRRAAA	-0.15
uchl1_155_7502 (protein) MRTVRITIDVTLPDATETVEVTLERTVSDKPEDREALAEEVAATVDAILAQGKNVRLTVTVTVPDKMVVAASLYQAIRRRVRAVARRHGAEVVITAEVVP	-0.0533

Let's switch to this binder now.
Lookup: Quick one: median log2 fold change for uchl1_199_7512 (protein) MSRAESIARQVGGRLLSGIGSPEVLAAKAAALLRRVLARLPDLPDETLLEMVRILLEAIARERSPEAFAAVAAALIAVLDAERGIGAEVAAIAEEVRAAA ?
Found: -0.679
